- PROTOCOL_NOTES: soluble on expression in E. coli; label from the status in PepcDB or PDB records
MEASUREMENT_NAME: soluble on expression in E. coli

BIOSEQUENCE: MGSDKIHHHHHHMTTSTGKINLLGLTQPEMEQFFDSIGEKRFRAGQVMKWIHHFGVSDFAAMTNVGKVLREKLEAVAEIRPPEVVSEDISADGTRKWVIRVASGSCVETVYIPTDDRGTLCVSSQAGCALDCSFCSTGKQGFNSNLTAAEVIGQVWLANKSFGTVPAKVDRAITNVVMMGMGEPLLNFDNVIAAMKIMMDDLGYGISKRRVTLSTSGVVPMIDELAKHIDVSLALSLHAPNDELRNKLVPINKKYPLKVLLESCMGYMSTLGGKRVLTVEYTLLKDVNDQPEHAAQMIELLRDVPCKINLIPFNPFPHSGYERPSNNAIRRFQDLLHHGGFNVTTRTTRGDDIDAACGQLVGQVNDRTRRSERYIAVRQLSADVELPDSAASH
MEASUREMENT_NAME: soluble on expression in E. coli
VALUE_REPORTED: not soluble
--
BIOSEQUENCE: RPPKWTGMDVWAAAICFNTVEAAKKNLPKPESWADLTKPVYKGQIVMPHPASSGTGYLDVSAWLQTLGEKKGWDYMDKLHANMAQYVHSGSKPCKMAAAGEYPIGISFEYRGAQLKEKGAPIDLIYPKEGLGWDLEATAIIKGTKNLEAARKLADFSVSLPAMKLYEQNYAVLAMPGV
MEASUREMENT_NAME: soluble on expression in E. coli
VALUE_REPORTED: not soluble
